- Test system: cervical epithelioid carcinoma (HeLa)
- assayProtocol: MTT cytotoxicity assay, HeLa
- Assay type: cell-based, human
- testSettings: dose required to inhibit 50% cellular growth for 72 h
property: log10 of IC50 (log10 of the value in µM)
log10 IC50, µM

• Cn1cc[n+](C)[c]1[Au-]12[n]3c(nc4ccccc43)-c3cccc([n+]31)-c1nc3ccccc3[n]12.O=S(=O)([O-])C(F)(F)F = 1.16
• C[n+]1ccn(CCC[P+](c2ccccc2)(c2ccccc2)c2ccccc2)[c]1[Au-]12[n]3ccnc3-c3cccc([n+]31)-c1ncc[n]12.O=S(=O)([O-])C(F)(F)F.O=S(=O)([O-])C(F)(F)F = 1.89
• CCCCCCCCCCCCCCCCn1cc[n+](C)[c]1[Au-]12[n]3ccnc3-c3cccc([n+]31)-c1ncc[n]12.O=S(=O)([O-])C(F)(F)F = 0.15

Report log10 of IC50 for each item below.
1. CCCCn1cc[n+](CCCC)[c]1[Au-]12[n]3c(nc4ccccc43)-c3cccc([n+]31)-c1nc3ccccc3[n]12.O=S(=O)([O-])C(F)(F)F
2. CCCCCCn1cc[n+](CCCCCC)[c]1[Au-]12[n]3c(nc4ccccc43)-c3cccc([n+]31)-c1nc3ccccc3[n]12.O=S(=O)([O-])C(F)(F)F
3. CCCCCCCCn1cc[n+](C)[c]1[Au-]12[n]3ccnc3-c3cccc([n+]31)-c1ncc[n]12.O=S(=O)([O-])C(F)(F)F
4. CCCCn1cc[n+](CCCC)[c]1[Au-]12[n]3ccnc3-c3cccc([n+]31)-c1ncc[n]12.O=S(=O)([O-])C(F)(F)F
5. CCCCCCCCCCn1cc[n+](C)[c]1[Au-]12[n]3ccnc3-c3cccc([n+]31)-c1ncc[n]12.O=S(=O)([O-])C(F)(F)F
6. CCCCCCn1cc[n+](CCCCCC)[c]1[Au-]12[n]3ccnc3-c3cccc([n+]31)-c1ncc[n]12.O=S(=O)([O-])C(F)(F)F
7. Cn1cc[n+](C)[c]1[Au-]12[n]3ccnc3-c3cccc([n+]31)-c1ncc[n]12.O=S(=O)([O-])C(F)(F)F

Result string:
1: 0.96; 2: 0.92; 3: 1.15; 4: 1.11; 5: 0.91; 6: 0.91; 7: 1.52
